Value source: patent US20240252488A1

pKd: −log10 of the molar value.
# pKd measurements, system: MLKL (Homo sapiens)
MEASUREMENT TYPE: pKd

Example results:
Nc1ncc(-c2cnn(C3CCN(CCC4CCN(C(=O)C5CN(c6ccc7nnn(C8CCC(=O)NC8=O)c(=O)c7c6)C5)CC4)CC3)c2)nc1C(=O)O[C@@H](C(=O)Nc1ccc(F)cc1)c1ccccc1 (some centres unmarked) : 8.39
Nc1ncc(-c2cnn(C3CCN(CCCN4CCN(C(=O)CCc5cccc6c5CN(C5CCC(=O)NC5=O)C6=O)CC4)CC3)c2)nc1C(=O)O[C@@H](C(=O)Nc1ccc(F)cc1)c1ccccc1 (some centres unmarked) : 9.03

(1) Nc1ncc(C2=CCN(C(=O)CCCCCNc3cccc4c3C(=O)N(C3CCC(=O)NC3=O)C4=O)CC2)cc1C(=O)O[C@@H](C(=O)Nc1ccc(F)cc1)c1ccccc1 (some centres unmarked)
(2) Nc1ncc(-c2cnn(C3CCN(C(=O)C4CCN(C(=O)COc5ccc6c(c5)C(=O)N(C5CCC(=O)NC5=O)C6=O)CC4)CC3)c2)nc1C(=O)OC(C(=O)Nc1ccc(F)cc1)c1ccccc1 (centres unmarked)
(3) CC(=O)N1CCC(n2cc(-c3cnc(N)c(C(=O)O[C@@H](C(=O)Nc4ccc(F)cc4)c4ccccc4)n3)cn2)CC1
Q: Could you please sort these 3 entries by pKd from high to low? Present the labels in the sequence the task asks for.
Ans: 3, 2, 1

* * *

- TARGET UNDER TEST: MLKL (Homo sapiens, UniProt Q8NB16)
- PROTOCOL DETAILS: MLKL degradation assay in HepG2 cell line (western blot)
- Assay type: cell-based
- Design: endogenous in cells; host or cells: HepG2 or HaCaT
- DETAILS: compound 10 μM; cell line not given
MEASUREMENT TYPE: Degradation assay (Degradation %) 10 μM

Nc1ncc(-c2cnn(C3CCN(CCOCCOCCNC(=O)C4CCN(c5cccc6c5C(=O)N(C5CCC(=O)NC5=O)C6=O)CC4)CC3)c2)nc1C(=O)O[C@@H](C(=O)Nc1ccc(F)cc1)c1ccccc1 (some centres unmarked) : 46.89
Nc1ncc(-c2cnn(C3CCN(C4CC5(CCN(CC6CCN(C(=O)CNc7ccc8c(c7)C(=O)N(C7CCC(=O)NC7=O)C8=O)CC6)CC5)C4)CC3)c2)nc1C(=O)O[C@@H](C(=O)Nc1ccc(F)cc1)c1ccccc1 (some centres unmarked) : 86.93
Nc1ncc(-c2cnn(C3CCN(C4CC5(CCN(CC6CCN(C(=O)c7cccc(C(=O)NC8CCC(=O)NC8=O)c7)CC6)CC5)C4)CC3)c2)nc1C(=O)O[C@@H](C(=O)Nc1ccc(F)cc1)c1ccccc1 (some centres unmarked) : 82.68

(A) Nc1ncc(-c2cnn(C3CCN(CCCN4CCN(C(=O)c5cccc(C(=O)NC6CCC(=O)NC6=O)c5)CC4)CC3)c2)nc1C(=O)O[C@@H](C(=O)Nc1ccc(F)cc1)c1ccccc1 (some centres unmarked)
(B) Nc1ncc(-c2cnn(C3CCN(C(=O)CCCCCC#Cc4cccc5c4CN(C4CCC(=O)NC4=O)C5=O)CC3)c2)nc1C(=O)O[C@@H](C(=O)Nc1ccc(F)cc1)c1ccccc1 (some centres unmarked)
Q: Which of the two items, A and B , has the greater recorded Degradation assay (Degradation %) 10 μM? Give the label of your selection.
Ans: A

* * *

- Tested on: FADD−/− Jurkat cells
- PROTOCOL DETAILS: Necroptosis inhibition assay, TNF-α-induced necroptosis (CellTiter-Glo 2.0)
- Assay type: cell-based, human
- DETAILS: compound 10 μM; TNF-α 15 ng/mL, FADD−/− Jurkat cells
MEASUREMENT TYPE: Necroptosis inhibition assay (Rescue %) 10 μM
Give the quantity in %, number only.

Some molecules with recorded Necroptosis inhibition assay (Rescue %) 10 μM:
Nc1ncc(-c2cnn(C3CCN(CCCN4CCN(C(=O)c5ccc(C(=O)NC6CCC(=O)NC6=O)cc5)CC4)CC3)c2)nc1C(=O)O[C@@H](C(=O)Nc1ccc(F)cc1)c1ccccc1 (stereo partly shown) : 23.78
COc1ccc(C(=O)N2CCC(CCN3CCC(n4cc(-c5cnc(N)c(C(=O)O[C@@H](C(=O)Nc6ccc(F)cc6)c6ccccc6)n5)cn4)CC3)CC2)cc1N1CCC(=O)NC1=O : 8.47
Nc1ncc(-c2cnn(C3CCN(CCCN4CC5CC4CN5C(=O)CNc4ccc5c(c4)C(=O)N(C4CCC(=O)NC4=O)C5=O)CC3)c2)nc1C(=O)O[C@@H](C(=O)Nc1ccc(F)cc1)c1ccccc1 (stereo partly shown) : 39.99
Nc1ncc(-c2cnn(C3CCN(CCCC4CCN(C(=O)CCc5ccc6c(c5)C(=O)N(C5CCC(=O)NC5=O)C6=O)CC4)CC3)c2)nc1C(=O)O[C@@H](C(=O)Nc1ccc(F)cc1)c1ccccc1 (stereo partly shown) : 37.9
Nc1ncc(-c2cnn(C3CCN(C(=O)CCC4CCN(C(=O)C5CN(c6cccc7c6C(=O)N(C6CCC(=O)NC6=O)C7=O)C5)CC4)CC3)c2)nc1C(=O)O[C@@H](C(=O)Nc1ccc(F)cc1)c1ccccc1 (stereo partly shown) : 9.73

Q: // map Nc1ncc(-c2cnn(C3CCN(C4CC5(CCN(CC6CCN(C(=O)C7CN(C8=CC(=O)N(C9CCC(=O)NC9=O)C8=O)C7)CC6)CC5)C4)CC3)c2)nc1C(=O)O[C@@H](C(=O)Nc1ccc(F)cc1)c1ccccc1 (stereo partly shown) to recorded Necroptosis inhibition assay (Rescue %) 10 μM (system: FADD−/− Jurkat cells)
Ans: 22.25

Q: State its Necroptosis inhibition assay (Rescue %) 10 μM on FADD−/− Jurkat cells: COc1ccc(C(=O)N2CCC3(CC2)CC(N2CCC(CN4CCC(n5cc(-c6cnc(N)c(C(=O)O[C@@H](C(=O)Nc7ccc(F)cc7)c7ccccc7)n6)cn5)CC4)CC2)C3)cc1N1CCC(=O)NC1=O
Ans: 14.61

Q: Please tell me: Necroptosis inhibition assay (Rescue %) 10 μM of Nc1ncc(-c2cnn(C3CCN(CCC4CCN(C(=O)Cc5cccc(NC6=CC(=O)N(C7CCC(=O)NC7=O)C6=O)c5)CC4)CC3)c2)nc1C(=O)O[C@@H](C(=O)Nc1ccc(F)cc1)c1ccccc1 (stereo partly shown) , system FADD−/− Jurkat cells?
Ans: −8.57

Q: Identify the measured Necroptosis inhibition assay (Rescue %) 10 μM of Nc1ncc(-c2cnn(C3CCN(CCOC4CCN(C(=O)c5ccc6c(c5)CN(C5CCC(=O)NC5=O)C6=O)CC4)CC3)c2)nc1C(=O)O[C@@H](C(=O)Nc1ccc(F)cc1)c1ccccc1 (stereo partly shown) for FADD−/− Jurkat cells.
Ans: 25.21

Q: Fill in the recorded Necroptosis inhibition assay (Rescue %) 10 μM for this molecule, with FADD−/− Jurkat cells as test system: Nc1ncc(-c2cnn(C3CCN(C4CC5(CCN(CC6CCN(C(=O)COc7ccc8c(c7)C(=O)N(C7CCC(=O)NC7=O)C8=O)CC6)CC5)C4)CC3)c2)nc1C(=O)O[C@@H](C(=O)Nc1ccc(F)cc1)c1ccccc1 (stereo partly shown)
Ans: 21.7

* * *

Recorded Necroptosis inhibition assay (Rescue %) 1 μM by entry
- Tested on: FADD−/− Jurkat cells
- PROTOCOL DETAILS: Necroptosis inhibition assay, TNF-α-induced necroptosis (CellTiter-Glo 2.0)
- Assay type: cell-based, human
- DETAILS: compound 1 μM; TNF-α 15 ng/mL
The reply should be a number in %, with the unit left off.

Nc1ncc(-c2cnn(C3CCN(CCC4CCN(C(=O)C5CCN(c6cccc7c6C(=O)N(C6CCC(=O)NC6=O)C7=O)CC5)CC4)CC3)c2)nc1C(=O)O[C@@H](C(=O)Nc1ccc(F)cc1)c1ccccc1 (stereo partly drawn) : 60.75
Nc1ncc(-c2cnn(C3CCN(C[C@H]4CC[C@H](CNC(=O)CNc5cccc6c5C(=O)N(C5CCC(=O)NC5=O)C6=O)CC4)CC3)c2)nc1C(=O)O[C@@H](C(=O)Nc1ccc(F)cc1)c1ccccc1 (stereo partly drawn) : 23.88

Next molecule, please.
Q: Bench note: what Necroptosis inhibition assay (Rescue %) 1 μM did Nc1ncc(-c2cnn(C3CCN(CCCN4CCN(C(=O)CCc5ccc6c(c5)C(=O)N(C5CCC(=O)NC5=O)C6=O)CC4)CC3)c2)nc1C(=O)O[C@@H](C(=O)Nc1ccc(F)cc1)c1ccccc1 (stereo partly drawn) show?
Ans: 46.33

* * *

- TARGET UNDER TEST: MLKL (Homo sapiens, UniProt Q8NB16)
- Sequence (Q8NB16 1-471): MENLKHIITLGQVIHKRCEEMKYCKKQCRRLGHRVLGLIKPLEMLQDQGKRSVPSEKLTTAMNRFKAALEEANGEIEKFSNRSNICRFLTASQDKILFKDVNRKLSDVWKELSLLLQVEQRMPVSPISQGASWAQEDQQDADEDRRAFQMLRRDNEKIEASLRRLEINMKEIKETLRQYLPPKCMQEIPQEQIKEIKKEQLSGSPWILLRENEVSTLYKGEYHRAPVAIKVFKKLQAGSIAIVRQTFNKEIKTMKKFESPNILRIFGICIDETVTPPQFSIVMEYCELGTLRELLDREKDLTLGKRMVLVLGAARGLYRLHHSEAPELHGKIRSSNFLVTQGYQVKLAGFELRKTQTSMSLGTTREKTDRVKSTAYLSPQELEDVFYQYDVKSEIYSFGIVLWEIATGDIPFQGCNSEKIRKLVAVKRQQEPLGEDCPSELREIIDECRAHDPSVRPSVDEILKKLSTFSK
- PROTOCOL DETAILS: MLKL degradation assay in HepG2 cell line (western blot)
- Assay type: cell-based
- Set-up: endogenous in cells; host or cells: HepG2 or HaCaT
- DETAILS: compound 10 μM; cell line not given
MEASUREMENT TYPE: Degradation assay (Degradation %) 10 μM

# count of solved cases: 3
Nc1ncc(-c2cnn(C3CCN(CCOC4CCN(C(=O)CCc5cccc6c5C(=O)N(C5CCC(=O)NC5=O)C6=O)CC4)CC3)c2)nc1C(=O)O[C@@H](C(=O)Nc1ccc(F)cc1)c1ccccc1 (some centres unmarked) [TDH-378] : 80.01
Nc1ncc(-c2cnn(C3CCN(CCC4CCN(C(=O)C5CN(C6=CC(=O)N(C7CCC(=O)NC7=O)C6=O)C5)CC4)CC3)c2)nc1C(=O)O[C@@H](C(=O)Nc1ccc(F)cc1)c1ccccc1 (some centres unmarked) [TDH-531] : 53.49
Nc1ncc(-c2cnn(C3CCN(CC4CCN(C(=O)COc5ccc6nnn(C7CCC(=O)NC7=O)c(=O)c6c5)CC4)CC3)c2)nc1C(=O)O[C@@H](C(=O)Nc1ccc(F)cc1)c1ccccc1 (some centres unmarked) [TDH-169] : 58.09

(I) Nc1ncc(-c2cnn(C3CCN(CCCCCCCCCCNC(=O)CNc4ccc5nnn(C6CCC(=O)NC6=O)c(=O)c5c4)CC3)c2)nc1C(=O)O[C@@H](C(=O)Nc1ccc(F)cc1)c1ccccc1 (some centres unmarked) [TDH-173]
(II) Nc1ncc(-c2cnn(C3CCN(C(=O)COCCOCCNC(=O)C4CCN(c5cccc6c5C(=O)N(C5CCC(=O)NC5=O)C6=O)CC4)CC3)c2)nc1C(=O)O[C@@H](C(=O)Nc1ccc(F)cc1)c1ccccc1 (some centres unmarked) [TDH-194]
Q: Given I and II , report the one with the higher recorded Degradation assay (Degradation %) 10 μM. Give the chosen item's label as your response.
Ans: I
(I: 75.11%, II: 18.24%)
